Data provenance: paper PMC7377239

Test system: iCell cardiomyocytes (human iPSC-derived cardiomyocytes)
testName: Intracellular Ca2+ flux / beating parameters in iCell cardiomyocytes (FLIPR tetra), 90 min or 24 h
Assay type: cell-based
conditionSet: Homo sapiens, Cardiomyocyte, 1.5 h, 100.00 µM; 0.00 µM = 100.00; read-out: cm.decay.rise.90min
Where a name gives a salt, the structure may show the parent alone.
Attribute: activity at 100 µM
// return numeric value only (unit: %, not printed)

Would you please look over these solved cases?
- compound: "Oc1ccc(O)c(-c2ccc(Cl)cc2)c1 [2',5'-DiOH PCB3]"
  valueUnits: "%"
  resultNumber: 21.5
- compound: "Oc1ccc(-c2ccc(Cl)cc2)cc1 [4'-OH PCB3]"
  valueUnits: "%"
  resultNumber: 0
- compound: "O=S(=O)(O)Oc1cc(-c2ccccc2)ccc1Cl [3-yl PCB 3 sulfate]"
  valueUnits: "%"
  resultNumber: 95.6
- compound: "Oc1cc(Cl)cc(-c2cccc(Cl)c2)c1 [5-OH PCB 11]"
  valueUnits: "%"
  resultNumber: 0

Alright, here's another compound for you.
Ask: Item O=S(=O)(O)Oc1ccc(-c2ccc(Cl)cc2)cc1 [4'-yl PCB 3 sulfate] has what recorded activity at 100 µM?
Reply: 0

* * *

Test system: iCell cardiomyocytes (human iPSC-derived cardiomyocytes)
testName: High-content imaging of cytotoxicity and mitochondrial integrity in iPSC-CMs
Type: cell-based
conditionSet: Homo sapiens, Cardiomyocyte, 24 h, 1.00 µM; 0.00 µM = 100.00; read-out: cm.mito.24hrs
Where a name gives a salt, the structure may show the parent alone.
experimentalReadout: activity at 1 µM (%)
Write down the numeric answer in % and omit the unit.

- compound: "Oc1ccc(-c2ccc(Cl)cc2)cc1"
  valueUnits: "%"
  activity at 1 µM: 103
- compound: "Oc1cc(Cl)cc(-c2cccc(Cl)c2)c1"
  valueUnits: "%"
  activity at 1 µM: 97.8
- compound: "Clc1ccc(-c2ccccc2)cc1"
  valueUnits: "%"
  activity at 1 µM: 91

Ask: Return reported activity at 1 µM; argument: Oc1ccccc1-c1ccc(Cl)cc1
Reply: 96.7

Ask: Any idea what activity at 1 µM was measured for Clc1cccc(-c2cccc(Cl)c2)c1 ?
Reply: 98.5

Ask: Could you tell me which activity at 1 µM is on file for O=S(=O)(O)Oc1ccc(-c2ccc(Cl)cc2)cc1 [4'-yl PCB 3 sulfate] ?
Reply: 108

Ask: Given the entry O=S(=O)(O)Oc1cccc(-c2ccc(Cl)cc2)c1 [3'-yl PCB 3 sulfate] , report its measured activity at 1 µM.
Reply: 99.9

* * *

System: iPSC-CMs, iPSC-ECs and HUVECs phenotypes
testName: ToxPi 2.0 integration of POD values and physicochemical descriptors
Design: species or system human
conditionSet: ToxPi-scaled (0-1) score; HUVECs, tube formation, 18 h
Structures can show the parent of a compound that is named as a salt.
Reported huvec.mtl.18hr values for the following compounds.
A bare number is all that is needed in reply.

Observe how each entry below is paired with its result.
- compound: "Clc1ccc(Cl)c(-c2c(Cl)ccc(Cl)c2Cl)c1 [PCB 95, 2,2′,3,5′,6-pentachlorobiphenyl]"
  targetUnderTest: "iPSC-CMs, iPSC-ECs and HUVECs phenotypes"
  resultNumber: 0.5568
- compound: "O=S(=O)(O)Oc1cccc(-c2ccc(Cl)cc2)c1 [3'-PCB 3 sulfate]"
  targetUnderTest: "iPSC-CMs, iPSC-ECs and HUVECs phenotypes"
  resultNumber: 0.4173
- compound: "COc1ccc(-c2ccc(Cl)cc2)cc1 [4'-OMe-PCB 3, 4′-methoxy-4-chlorobiphenyl]"
  targetUnderTest: "iPSC-CMs, iPSC-ECs and HUVECs phenotypes"
  resultNumber: 0.5905
- compound: "Clc1cccc(-c2cccc(Cl)c2)c1 [PCB 11, 3,3′-Dichlorobiphenyl]"
  targetUnderTest: "iPSC-CMs, iPSC-ECs and HUVECs phenotypes"
  resultNumber: 0
- compound: "O=S(=O)(O)Oc1cc(Cl)c(-c2cc(Cl)ccc2Cl)cc1Cl [4-PCB 52 sulfate]"
  targetUnderTest: "iPSC-CMs, iPSC-ECs and HUVECs phenotypes"
  resultNumber: 0.4309
- compound: "Oc1cc(Cl)cc(-c2cccc(Cl)c2)c1 [5-OH-PCB 11]"
  targetUnderTest: "iPSC-CMs, iPSC-ECs and HUVECs phenotypes"
  resultNumber: 0.5955

Ask: Give the measured huvec.mtl.18hr of Oc1ccc(-c2ccc(Cl)cc2)cc1 [4'-OH-PCB 3] .
Reply: 0.9876

Ask: Field request: huvec.mtl.18hr | item: Oc1cccc(-c2ccc(Cl)cc2)c1 [3'-OH-PCB 3]
Reply: 1

Ask: Given the compound COc1ccc(-c2cccc(Cl)c2)cc1Cl [4-OMe-PCB 11, 4-methoxy-3,3′-dichlorobiphenyl] , what is its reported huvec.mtl.18hr?
Reply: 0.5304

Ask: Which value of huvec.mtl.18hr has been reported for Oc1cc(Cl)c(-c2cc(Cl)ccc2Cl)cc1Cl [4-OH-PCB 52] in the records?
Reply: 0.5555
